- measurementTarget: recombinant human Flag-tagged PARP7 (amino acids 456-657) (Homo sapiens, UniProt Q7Z3E1)
- Construct: recombinant human Flag-tagged PARP7 (amino acids 456-657)
- Sequence (Q7Z3E1 456-657): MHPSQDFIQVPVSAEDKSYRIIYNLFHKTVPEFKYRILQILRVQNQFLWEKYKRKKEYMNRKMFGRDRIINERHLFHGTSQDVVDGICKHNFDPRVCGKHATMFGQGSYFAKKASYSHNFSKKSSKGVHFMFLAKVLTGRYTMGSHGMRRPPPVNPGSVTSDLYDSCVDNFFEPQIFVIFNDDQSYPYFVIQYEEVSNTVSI
- testMethodNotes: PARP7 biochemical DELFIA assay (auto-MARylation)
- conditionsUsed: DELFIA readout, IC50 class
- Method: A suitable assay may be conducted using 10-30 nM PARP7 (amino acids 456-657), 2 μM biotin-NAD assay solution in 20 mM HEPES (pH 7.5), 100 mM NaCl, 2 mM DTT, 0.1% BSA (w/v), 0.02% Tween (v/v) assay buffer. MARylation may take place for 2-3 h at room temperature and may be detected using a dissociation-enhanced lanthanide fluorescence immunoassay (DELFIA) readout. […] Following incubation for 30 min at room temperature, fluorescence was read on either an Envision or Pherastar FS (Ex337 nm, Em620 nm).
pIC50: −log10 of the molar value.
measurementLabel: pIC50

Use the examples below as a reference point.
O=C(CCOCCc1cccc2c(=O)[nH]cnc12)N1CCN(c2ncc(C(F)(F)F)cn2)CC1 [Compound 16] ... 6.00 to 7.00
O=C(CCOCCn1cc(C(F)(F)F)c2c(=O)[nH]ncc21)N1CCN(c2nc3ccccc3[nH]2)CC1 [Compound 380] ... ≥ 7.00
N#Cc1ccc2oc(N3CCN(C(=O)CCOCCn4cc(C(F)(F)F)c5c(=O)[nH]ncc54)CC3)nc2c1 [Compound 361] ... ≥ 7.00
CC(COCCC(=O)N1CCN(c2nc(C#N)cs2)CC1)n1nc(C(F)(F)F)c2c(=O)[nH]ncc21 (single isomer, unassigned) [Compound 250] ... 5.00 to 6.00
COc1cnc(N2CCN(C(=O)CCOCC(C)n3nc(C(F)(F)F)c4c(=O)[nH]ncc43)CC2)nc1 (single isomer, unassigned) [Compound 331] ... ≥ 7.00
CC1CN(C(=O)CCOCCn2ncc3c(=O)[nH]ncc32)CCN1c1ncc(C(F)(F)F)cn1 (centres unmarked) [Compound 138] ... ≥ 7.00

So for CC1CN(C(=O)CCOCCn2nc(C(F)(F)F)c3c(=O)[nH]ncc32)CCN1c1ncc(C(F)(F)F)cn1 (single isomer, unassigned) [Compound 188] , the logged pIC50 turned out to be ≥ 7.00

So for O=C(CCOCCN1CCc2c1cn[nH]c2=O)N1CCN(c2ncc(C(F)(F)F)cn2)CC1 [Compound 6] , the logged pIC50 turned out to be 6.00 to 7.00
